Property Measured: melting point (°C)

- COc1ccnc(C#CCN(c2ccc3ncc(-c4cnn(C)c4)nc3c2)c2c(F)c(OC)cc(OC)c2F)n1: 187
- COc1cc(OC)cc(N(CCC#N)c2ccc3ncc(-c4cnn(C)c4)nc3c2)c1 [Compound 122]: 202.94
- COc1cc(OC)cc(N(CC2CC2)c2ccc3ncc(-c4cnn(CC(=O)NCCO)c4)nc3c2)c1: 167.45
- COc1cc(OC)cc(N(CC#Cc2cc(OC)nc(OC)n2)c2ccc3ncc(-c4cnn(C)c4)nc3c2)c1 [Compound 913]: 170

---

Property Measured: melting point (°C)

* CCOC(=O)Cn1cc(CN(c2cc(OC)cc(OC)c2)c2ccc3ncc(-c4cnn(C)c4)nc3c2)nn1 | 88
* CNC1CCN(CCCN(c2cc(OC)cc(OC)c2)c2ccc3ncc(-c4cnn(C)c4)nc3c2)C1 (stereo not shown) | 139.15
* COc1cc(OC)cc(N(Cc2cnccn2)c2ccc3ncc(-c4cnn(C)c4)nc3c2)c1 | 163
* C#CCN(c1cc(OC)cc(OC)c1)c1ccc2ncc(-c3cnn(CC4CCOCC4)c3)nc2c1 | 106
* COc1cc(OC)cc(N(CCCN2CC(F)(F)C2)c2ccc3ncc(-c4cnn(C)c4)nc3c2)c1 | 112.31

A: COc1cc(OC)cc(N(Cc2ccc(Cl)s2)c2ccc3ncc(-c4cnn(C)c4)nc3c2)c1
B: COc1cccnc1C#CCN(c1ccc2ncc(-c3cnn(C)c3)nc2c1)c1c(F)c(OC)cc(OC)c1F
Which shows the larger melting point value: A or B ? Output the label that corresponds to your choice.
B
(B: 202 °C, A: 140.28 °C)
